All values here come from patent US20230137562A1.

TARGET_DESC: T1, Ac-VQIINK-NH2
T1 peptide: Ac-VQIINK-NH2
METHOD_DESCRIPTION: cell-based or functional assay
Square brackets hold non-standard residues; d marks the D form. Ends that are not written are not given here. Orn = NCCC[C@H](N)C(=O)O
MEASURED_ENDPOINT: IC50 (µM), VQIINK Inhibition (ThT)

- IWIRYWRW: 2.15
- WRLKVRWW: 3.34
- RIRLEWW: 3.89
- FRIKLRW: 2.38
- FRIRIHHW: 1.08
- WRIRLWYW: 1.98
- WIRYWIRW: 1.78
- WY[Orn]IWI[Orn]W [WYOIWIOW]: 2.45
